B1: STX11 (parent)
chain: FQRAMHDYNQAEMKQRDNCKIRIQ

- Variants of: B1
- Run description: protein stability index of a GFP-peptide fusion (GPS, HEK-293T) (PSI 1-6); higher = more stable;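 also: lentivirally expressed fusions sorted by FACS into six bins by GFP to DsRed ratio, PSI derived from sequencing read proportions per bin multiplied by bin number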
- Experimental context: c terminus: a fixed tail appended
Condition met means recorded protein stability index is 3 or above; Condition not met means it is below 3.

>  <Alteration>
R16Y

>  <Cat>
Condition not met

$$$$
>  <Alteration>
M13D

>  <Cat>
Condition met

$$$$
>  <Alteration>
I21V

>  <Cat>
Condition not met

$$$$
>  <Alteration>
R22D

>  <Cat>
Condition met

$$$$
>  <Alteration>
N9M

>  <Cat>
Condition not met

$$$$
>  <Alteration>
Y8F

>  <Cat>
Condition not met

$$$$
>  <Alteration>
N9D

>  <Cat>
Condition not met

$$$$
>  <Alteration>
K20W

>  <Cat>
Condition not met

$$$$
>  <Alteration>
Q10F

>  <Cat>
Condition not met

$$$$
>  <Alteration>
F1T

>  <Cat>
Condition met

$$$$
>  <Alteration>
I21F

>  <Cat>
Condition not met

$$$$
>  <Alteration>
K20M

>  <Cat>
Condition not met

$$$$
>  <Alteration>
R16N

>  <Cat>
Condition not met

$$$$
>  <Alteration>
E12L

>  <Cat>
Condition not met

$$$$
>  <Alteration>
K14M

>  <Cat>
Condition not met

$$$$
>  <Alteration>
K14P

>  <Cat>
Condition not met

$$$$
>  <Alteration>
I21D

>  <Cat>
Condition met

$$$$
>  <Alteration>
Q15L

>  <Cat>
Condition not met

$$$$
>  <Alteration>
R22L

>  <Cat>
Condition not met

$$$$
>  <Alteration>
A11K

>  <Cat>
Condition not met

$$$$
